Where do the numbers come from? From patent US20250066286A1.

# RUN DESCRIPTION: Solubility testing of (Z)-endoxifen in single solvents
# Format: physicochemical
# ASSAY CONTEXT: butyl acetate, organic solvent or mixture, thermodynamic from solid, butyl acetate, high temperature; read-out: Solubility
ENDPOINT: solubility

Query: Recorded solubility for CC/C(=C(\c1ccc(O)cc1)c1ccc(OCCNC)cc1)c1ccccc1 [(Z)-endoxifen] , please?
Reply: 20 to 100 mg/mL

----------
# RUN DESCRIPTION: Stability of (Z)-Endoxifen in acetone (HPLC peak table over time)
# Type: physicochemical
# ASSAY CONTEXT: acetone, 40° C., T0
ENDPOINT: HPLC peak RT 22.68, RRT 1.39 (%)
# value in %; strip the unit string

Query: // HPLC peak RT 22.68, RRT 1.39 lookup, key: CC/C(=C(\c1ccc(O)cc1)c1ccc(OCCNC)cc1)c1ccccc1 [(Z)-endoxifen]
Reply: 0.03

----------
# RUN DESCRIPTION: Stability of (Z)-Endoxifen in acetone (HPLC peak table over time)
# Format: physicochemical
# ASSAY CONTEXT: acetone at reflux (56° C.), 19 hr
ENDPOINT: HPLC peak RT 27.88, RRT 1.84 (%)
Number in %, nothing else.

Query: Field request: HPLC peak RT 27.88, RRT 1.84 | item: CC/C(=C(\c1ccc(O)cc1)c1ccc(OCCNC)cc1)c1ccccc1 [(Z)-endoxifen]
Reply: 0.04

----------
# RUN DESCRIPTION: Stability of (Z)-Endoxifen in acetone (HPLC peak table over time)
# Format: physicochemical
# ASSAY CONTEXT: acetone, 40° C., 28 hr
ENDPOINT: E-form, RT 15.40, RRT 0.95 (%)
Give your result in % as a bare value.

Query: Please look up its E-form, RT 15.40, RRT 0.95: CC/C(=C(\c1ccc(O)cc1)c1ccc(OCCNC)cc1)c1ccccc1 [(Z)-endoxifen]
Reply: 1.26

----------
# RUN DESCRIPTION: Solvent mixture solubility tests of (Z)-endoxifen
# Type: physicochemical
# ASSAY CONTEXT: water/tetrahydrofuran 95/5 v/v, aqueous with cosolvent or surfactant or cyclodextrin, thermodynamic from solid, water/tetrahydrofuran 95/5 v/v; 40 mg/mL; high temperature; read-out: Solubility HT (40 mg/mL): Sol. HT
ENDPOINT: solubility

Query: What does the record list as solubility for CC/C(=C(\c1ccc(O)cc1)c1ccc(OCCNC)cc1)c1ccccc1 [(Z)-endoxifen] ?
Reply: < 40 mg/mL

----------
# RUN DESCRIPTION: Stability of (Z)-Endoxifen in acetone (HPLC peak table over time)
# Assay type: physicochemical
# ASSAY CONTEXT: acetone at reflux (56° C.), 19 hr
ENDPOINT: HPLC peak RT 27.15, RRT 1.79 (%)
Write down the numeric answer in % and omit the unit.

Query: Given the entry CC/C(=C(\c1ccc(O)cc1)c1ccc(OCCNC)cc1)c1ccccc1 [(Z)-endoxifen] , report its measured HPLC peak RT 27.15, RRT 1.79.
Reply: 0.02

----------
# RUN DESCRIPTION: Stability of (Z)-Endoxifen in acetone (HPLC peak table over time)
# Type: physicochemical
# ASSAY CONTEXT: acetone, 40° C., 24 hr
ENDPOINT: HPLC peak RT 3.14, RRT 0.19 (%)
Give your result in % as a bare value.

Query: For the compound CC/C(=C(\c1ccc(O)cc1)c1ccc(OCCNC)cc1)c1ccccc1 [(Z)-endoxifen] , what HPLC peak RT 3.14, RRT 0.19 is on record?
Reply: 0.13
